molecular target: EGFR (Homo sapiens, UniProt P00533); assay: 125I-EGF whole-cell saturation binding, ZR-PR-LT cells, Woolf analysis
QUANTITY: pKd
The read-out pKd is expressed as -log10 of concentration in moles per litre.

// sample EGF (protein) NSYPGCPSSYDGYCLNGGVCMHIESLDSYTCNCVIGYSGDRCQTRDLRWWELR , its pKd was 9.59
